# test: self-splicing fitness, log relative to wild type (ln ratio); higher = more splicing; Tetrahymena group I intron in knt gene, E. coli kanamycin selection, DiMSum; sequences stand for … in CUCUCU…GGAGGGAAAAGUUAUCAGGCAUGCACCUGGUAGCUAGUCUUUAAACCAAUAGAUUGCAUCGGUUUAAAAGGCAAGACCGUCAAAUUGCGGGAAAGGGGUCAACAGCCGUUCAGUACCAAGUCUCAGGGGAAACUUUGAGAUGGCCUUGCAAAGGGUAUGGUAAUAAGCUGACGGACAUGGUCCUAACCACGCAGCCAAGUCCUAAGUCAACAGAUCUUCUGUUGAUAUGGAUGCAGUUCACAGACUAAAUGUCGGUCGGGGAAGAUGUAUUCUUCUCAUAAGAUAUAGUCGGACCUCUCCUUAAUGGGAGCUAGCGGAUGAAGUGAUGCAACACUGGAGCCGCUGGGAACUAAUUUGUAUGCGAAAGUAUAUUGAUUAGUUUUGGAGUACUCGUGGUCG;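 further: selection with 25 µg/mL kanamycin versus none on LB agar overnight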
# assay_context: 30 °C
Below: a set of entries, each annotated with reported self-splicing fitness (ln).
Response field accepts a number only; no unit should be typed.

Known self-splicing fitness (ln) results, listed for orientation:
- sequence_chain: "GCGGAGCAAUAUUACGGAAU"
  self-splicing fitness (ln): -2.29
- sequence_chain: "ACACAGCAAUAUUACGUAGG"
  self-splicing fitness (ln): -2.48
- sequence_chain: "AUGAAGCAAUAUUACGCCCG"
  self-splicing fitness (ln): -0.353
- sequence_chain: "UUAAAGCAAUAUUACGCUCU"
  self-splicing fitness (ln): -0.795
- sequence_chain: "UACUAGCAAUAUUACGUGAG"
  self-splicing fitness (ln): -3.38

// query self-splicing fitness (ln) value for entry "AAGUAGCAAUAUUACGCGUC"
-1.96

// query self-splicing fitness (ln) value for entry "UAUUAGCAAUAUUACGCCUA"
-0.107

// query self-splicing fitness (ln) value for entry "CUGCAGCAAUAUUACGAGCA"
-3.11

// query self-splicing fitness (ln) value for entry "CUAUAGCAAUAUUACGAUGC"
-4.97

// query self-splicing fitness (ln) value for entry "AGAUAGCAAUAUUACGUUAC"
-2.05

// query self-splicing fitness (ln) value for entry "AGGAAGCAAUAUUACGGAUU"
-2.3

// query self-splicing fitness (ln) value for entry "CGCAAGCAAUAUUACGUCCC"
-2.84

// query self-splicing fitness (ln) value for entry "GUCAAGCAAUAUUACGGGCC"
-3.75

// query self-splicing fitness (ln) value for entry "AAGUAGCAAUAUUACGGUCA"
-0.974

// query self-splicing fitness (ln) value for entry "CGAAAGCAAUAUUACGCCUG"
-0.16

// query self-splicing fitness (ln) value for entry "AUACAGCAAUAUUACGAUAA"
-1.37

====

# test: self-splicing fitness, log relative to wild type (ln ratio); higher = more splicing; Tetrahymena group I intron in knt gene, E. coli kanamycin selection, DiMSum; sequences stand for … in CUCUCU…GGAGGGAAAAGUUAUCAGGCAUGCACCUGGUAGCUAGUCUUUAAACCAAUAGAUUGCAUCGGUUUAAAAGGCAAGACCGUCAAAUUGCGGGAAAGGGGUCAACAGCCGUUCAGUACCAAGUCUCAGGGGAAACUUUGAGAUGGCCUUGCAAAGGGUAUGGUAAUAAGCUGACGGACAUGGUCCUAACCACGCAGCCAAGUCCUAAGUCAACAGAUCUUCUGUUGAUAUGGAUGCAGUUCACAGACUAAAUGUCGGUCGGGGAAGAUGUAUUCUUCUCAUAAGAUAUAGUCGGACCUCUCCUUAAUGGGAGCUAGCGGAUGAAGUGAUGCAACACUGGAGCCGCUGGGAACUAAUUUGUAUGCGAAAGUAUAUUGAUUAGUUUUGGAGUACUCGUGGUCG
# assay_context: 30 °C
Below: a set of entries, each annotated with reported self-splicing fitness (ln).
Response field accepts a number only; no unit should be typed.

Known self-splicing fitness (ln) results, listed for orientation:
- sequence_chain: "UAGCAGCAAUAUUACGCUGU"
  obs_value: -3.59
- sequence_chain: "UCUUAGCAAUAUUACGCCGU"
  obs_value: -2.05
- sequence_chain: "AGGAAGCAAUAUUACGUACG"
  obs_value: -1.15

// query self-splicing fitness (ln) value for entry "UGGAAGCAAUAUUACGGCGC"
-1.23

// query self-splicing fitness (ln) value for entry "CUCGAGCAAUAUUACGACCU"
-3.42
